The entries below are paired with their reported log10 EC50 of hC3 cleavage.
target: plasma purified human complement protein C3 (human) (UniProt P01024); experiment: cell-based or functional assay
Sequence (P01024 23-667, chain 1 of 2): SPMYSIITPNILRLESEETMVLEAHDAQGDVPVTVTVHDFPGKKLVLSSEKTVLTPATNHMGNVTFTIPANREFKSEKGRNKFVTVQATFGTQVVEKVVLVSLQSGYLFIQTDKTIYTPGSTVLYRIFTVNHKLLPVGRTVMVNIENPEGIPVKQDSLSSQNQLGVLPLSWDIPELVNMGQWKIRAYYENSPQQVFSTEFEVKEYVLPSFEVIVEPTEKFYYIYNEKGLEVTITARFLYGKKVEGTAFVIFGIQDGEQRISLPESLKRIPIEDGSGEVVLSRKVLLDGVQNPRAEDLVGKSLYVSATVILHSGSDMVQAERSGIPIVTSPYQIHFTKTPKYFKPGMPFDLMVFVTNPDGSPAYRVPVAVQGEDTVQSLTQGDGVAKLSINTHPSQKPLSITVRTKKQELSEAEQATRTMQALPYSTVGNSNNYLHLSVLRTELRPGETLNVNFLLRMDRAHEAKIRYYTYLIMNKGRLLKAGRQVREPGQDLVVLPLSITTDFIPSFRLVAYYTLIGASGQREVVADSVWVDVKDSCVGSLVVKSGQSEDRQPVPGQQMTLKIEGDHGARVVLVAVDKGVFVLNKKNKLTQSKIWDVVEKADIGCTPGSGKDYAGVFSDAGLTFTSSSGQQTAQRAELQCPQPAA
Sequence (P01024 672-1663, chain 2 of 2): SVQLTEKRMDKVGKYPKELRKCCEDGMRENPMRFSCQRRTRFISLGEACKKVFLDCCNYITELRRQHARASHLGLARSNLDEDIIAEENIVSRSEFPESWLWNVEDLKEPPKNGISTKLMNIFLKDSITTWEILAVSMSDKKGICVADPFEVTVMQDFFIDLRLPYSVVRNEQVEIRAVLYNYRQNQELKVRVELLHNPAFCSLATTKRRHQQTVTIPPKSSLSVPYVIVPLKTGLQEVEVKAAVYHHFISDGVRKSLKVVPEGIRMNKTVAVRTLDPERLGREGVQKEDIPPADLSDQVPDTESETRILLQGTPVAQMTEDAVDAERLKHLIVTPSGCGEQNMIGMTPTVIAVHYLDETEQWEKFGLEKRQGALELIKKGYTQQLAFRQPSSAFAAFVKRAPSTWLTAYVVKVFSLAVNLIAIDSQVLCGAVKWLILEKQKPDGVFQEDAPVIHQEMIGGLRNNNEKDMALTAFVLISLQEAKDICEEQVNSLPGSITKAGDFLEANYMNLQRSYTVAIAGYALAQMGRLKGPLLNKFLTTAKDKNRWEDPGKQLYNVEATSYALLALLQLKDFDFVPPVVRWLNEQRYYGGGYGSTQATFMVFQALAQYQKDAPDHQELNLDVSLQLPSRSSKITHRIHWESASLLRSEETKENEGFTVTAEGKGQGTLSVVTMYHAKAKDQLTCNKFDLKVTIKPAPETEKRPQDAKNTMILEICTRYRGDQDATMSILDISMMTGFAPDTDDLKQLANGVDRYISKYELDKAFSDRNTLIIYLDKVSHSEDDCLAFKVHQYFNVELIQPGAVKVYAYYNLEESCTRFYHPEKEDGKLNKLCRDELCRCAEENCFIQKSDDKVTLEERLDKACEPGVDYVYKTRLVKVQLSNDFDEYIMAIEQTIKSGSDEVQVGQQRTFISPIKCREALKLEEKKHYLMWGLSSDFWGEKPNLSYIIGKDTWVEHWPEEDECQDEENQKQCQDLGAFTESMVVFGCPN
Please interpret these as log10 of EC50 of hC3 cleavage where EC50 of hC3 cleavage is in nM.

Binder	Measure name	Value reported
MTSP-1 Q38H/I41A/D60bE/F60eH/Y60gW/F97T/ins97aE/T98G/F99L/C122S/G151N/Q175L/Q192D (enzyme) VVGGTDADEGEWPWQVSLHALGHGHACGASLISPNWLVSAAHCYIDERGHRWSDPTQWTAFLGLHDQSQRSAPGVQERRLKRIISHPFFNDTEGLDYDIALLELEKPAEYSSMVRPISLPDASHVFPAGKAIWVTGWGHTQYGGTNALILQKGEIRVINQTTCENLLPQLITPRMMCVGFLSGGVDSCDGDSGGPLSSVEADGRIFQAGVVSWGDGCAQRNKPGVYTRLPLFRDWIKENTGV	log10 EC50 of hC3 cleavage	0.92
MTSP-1 Q38H/I41A/D60bE/F60eH/Y60gW/ins97aE/F97T/T98G/F99L/C122S/G151H/Q175L/Q192D (enzyme) VVGGTDADEGEWPWQVSLHALGHGHACGASLISPNWLVSAAHCYIDERGHRWSDPTQWTAFLGLHDQSQRSAPGVQERRLKRIISHPFFNDTEGLDYDIALLELEKPAEYSSMVRPISLPDASHVFPAGKAIWVTGWGHTQYGGTHALILQKGEIRVINQTTCENLLPQLITPRMMCVGFLSGGVDSCDGDSGGPLSSVEADGRIFQAGVVSWGDGCAQRNKPGVYTRLPLFRDWIKENTGV	log10 EC50 of hC3 cleavage	1.14
MTSP-1 I41R/ins97aE/F97T/T98G/F99L/A112V/C122S/Q175L/Q192E (enzyme) VVGGTDADEGEWPWQVSLHALGQGHRCGASLISPNWLVSAAHCYIDDRGFRYSDPTQWTAFLGLHDQSQRSAPGVQERRLKRIISHPFFNDTEGLDYDIALLELEKPVEYSSMVRPISLPDASHVFPAGKAIWVTGWGHTQYGGTGALILQKGEIRVINQTTCENLLPQLITPRMMCVGFLSGGVDSCEGDSGGPLSSVEADGRIFQAGVVSWGDGCAQRNKPGVYTRLPLFRDWIKENTGV	log10 EC50 of hC3 cleavage	2.46
MTSP-1 F97D/F99L/C122S/Q192G (enzyme) VVGGTDADEGEWPWQVSLHALGQGHICGASLISPNWLVSAAHCYIDDRGFRYSDPTQWTAFLGLHDQSQRSAPGVQERRLKRIISHPFFNDDTLDYDIALLELEKPAEYSSMVRPISLPDASHVFPAGKAIWVTGWGHTQYGGTGALILQKGEIRVINQTTCENLLPQQITPRMMCVGFLSGGVDSCGGDSGGPLSSVEADGRIFQAGVVSWGDGCAQRNKPGVYTRLPLFRDWIKENTGV	log10 EC50 of hC3 cleavage	1.89
MTSP-1 Q38H/I41S/D60bT/F60eS/D96K/F97G/ins97aV/T98P/F99L/C122S/G151H/Q175L/Q192D (enzyme) VVGGTDADEGEWPWQVSLHALGHGHSCGASLISPNWLVSAAHCYIDTRGSRYSDPTQWTAFLGLHDQSQRSAPGVQERRLKRIISHPFFNKGVPLDYDIALLELEKPAEYSSMVRPISLPDASHVFPAGKAIWVTGWGHTQYGGTHALILQKGEIRVINQTTCENLLPQLITPRMMCVGFLSGGVDSCDGDSGGPLSSVEADGRIFQAGVVSWGDGCAQRNKPGVYTRLPLFRDWIKENTGV	log10 EC50 of hC3 cleavage	1.35

Any idea what log10 EC50 of hC3 cleavage was measured for MTSP-1 Q38H/I41S/D60bA/F60eV/Y60gF/ins97aE/F97T/T98G/F99L/C122S/G151N/Q175L/Q192T (enzyme) VVGGTDADEGEWPWQVSLHALGHGHSCGASLISPNWLVSAAHCYIDARGVRFSDPTQWTAFLGLHDQSQRSAPGVQERRLKRIISHPFFNDTEGLDYDIALLELEKPAEYSSMVRPISLPDASHVFPAGKAIWVTGWGHTQYGGTNALILQKGEIRVINQTTCENLLPQLITPRMMCVGFLSGGVDSCTGDSGGPLSSVEADGRIFQAGVVSWGDGCAQRNKPGVYTRLPLFRDWIKENTGV ? 1.15

Any idea what log10 EC50 of hC3 cleavage was measured for MTSP-1 Q38H/I41A/D60bV/F60eR/Y60gW/ins97aE/F97T/T98G/F99L/C122S/G151H/Q175L/Q192D (enzyme) VVGGTDADEGEWPWQVSLHALGHGHACGASLISPNWLVSAAHCYIDVRGRRWSDPTQWTAFLGLHDQSQRSAPGVQERRLKRIISHPFFNDTEGLDYDIALLELEKPAEYSSMVRPISLPDASHVFPAGKAIWVTGWGHTQYGGTHALILQKGEIRVINQTTCENLLPQLITPRMMCVGFLSGGVDSCDGDSGGPLSSVEADGRIFQAGVVSWGDGCAQRNKPGVYTRLPLFRDWIKENTGV ? 0.77

Any idea what log10 EC50 of hC3 cleavage was measured for MTSP-1 I41D/C122S/G151N/Q192T (enzyme) VVGGTDADEGEWPWQVSLHALGQGHDCGASLISPNWLVSAAHCYIDDRGFRYSDPTQWTAFLGLHDQSQRSAPGVQERRLKRIISHPFFNDFTFDYDIALLELEKPAEYSSMVRPISLPDASHVFPAGKAIWVTGWGHTQYGGTNALILQKGEIRVINQTTCENLLPQQITPRMMCVGFLSGGVDSCTGDSGGPLSSVEADGRIFQAGVVSWGDGCAQRNKPGVYTRLPLFRDWIKENTGV ? 1.93

Any idea what log10 EC50 of hC3 cleavage was measured for MTSP-1 H40R/I41H/F97D/F99L/C122S/Q192G/D217K/K224A (enzyme) VVGGTDADEGEWPWQVSLHALGQGRHCGASLISPNWLVSAAHCYIDDRGFRYSDPTQWTAFLGLHDQSQRSAPGVQERRLKRIISHPFFNDDTLDYDIALLELEKPAEYSSMVRPISLPDASHVFPAGKAIWVTGWGHTQYGGTGALILQKGEIRVINQTTCENLLPQQITPRMMCVGFLSGGVDSCGGDSGGPLSSVEADGRIFQAGVVSWGKGCAQRNAPGVYTRLPLFRDWIKENTGV ? 1.37

Any idea what log10 EC50 of hC3 cleavage was measured for MTSP-1 H40K/I41M/F97D/F99L/C122S/G151N/Q175M/Q192A/D217N/K224R (enzyme) VVGGTDADEGEWPWQVSLHALGQGKMCGASLISPNWLVSAAHCYIDDRGFRYSDPTQWTAFLGLHDQSQRSAPGVQERRLKRIISHPFFNDDTLDYDIALLELEKPAEYSSMVRPISLPDASHVFPAGKAIWVTGWGHTQYGGTNALILQKGEIRVINQTTCENLLPQMITPRMMCVGFLSGGVDSCAGDSGGPLSSVEADGRIFQAGVVSWGNGCAQRNRPGVYTRLPLFRDWIKENTGV ? 3.09
